Experiment: protein stability index of a GFP-peptide fusion (GPS, HEK-293T) (PSI 1-6); higher = more stable;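 further: 24-mer peptide tiles fused after GFP, lentivirally expressed, FACS-sorted into six equal bins by GFP/DsRed ratio, decoded by Illumina sequencing, PSI is the read-weighted mean bin number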
Settings: treatment: DMSO; c terminus: a fixed tail appended
Answer n if protein stability index is under 3, and y if it is 3 or more.

DLFKSFPGPMDWVPRYTGVAPQDQ [ADAMTS4]
y
VEASCSVCLEYLKEPVIIECGHNF [TRIM39]
n
ACGGLDNKCSVYPLTFDKNENMAA [GNB5]
y
ARTQMILLRRSVEGASSDNGCEVK [PHTF1]
y
DVLNDAIFDEDHDEMVIVKDIDMF [GCH1]
y
AAFVRAQADLLAHLVPEPDRLEEQ [DNAAF3]
y
NWWIRGILTLTMISLFFLIIYMGS [CDS1]
n
GKTTIILRCLDRDEPSKPTLALEY [DYNC2LI1]
n
VKLWKVSERDKRPEGYNLKDEEGR [PPP2R2B]
y
SAETGSPRLTMHYPCLEKPRIWSL [IRX6]
n

Does RRSFLIEHQRSHTGERPHQCIECG [ZSCAN9] have a reported protein stability index of at least 3? y

Does FLLDVIPVDGARYRWQGRRWEPSG [TBX6] have a reported protein stability index of at least 3? n

Does TLTREQTERLSHQITSRVVSAATQ [RTN2] have a reported protein stability index of at least 3? y

Does LKCDLQERLLCPSLLAGTADGSLR [M1AP] have a reported protein stability index of at least 3? n

Does SLREYNDFLEEVEEIVFNLTNNVD [MNAT1] have a reported protein stability index of at least 3? n

Does SPEVLRKDPYGKPVDLWACGVILY [CAMK2A] have a reported protein stability index of at least 3? n

Does FLHSLVQFLFIYQLPFCGPNVIDN [OR4A15] have a reported protein stability index of at least 3? n

Does EHRRTARRTPPGQQRPHPRSHSRE [ELOA2] have a reported protein stability index of at least 3? y

Does VTPAQNNLLQPNFEAAFGTTPSTS [SNAP91] have a reported protein stability index of at least 3? y

Does APDKTSTVLTRHSQPATPTPLQSR [PDLIM7] have a reported protein stability index of at least 3? y

Does RGQEPARADQLCQQELRELRRELE [PRPH] have a reported protein stability index of at least 3? y

###

# maps each entry to its protein stability index
Experiment: protein stability index of a GFP-peptide fusion (GPS, HEK-293T) (PSI 1-6); higher = more stable
Details: treatment: MLN4924 1 uM, 8 h; c terminus: a fixed tail appended
Format: numeric value only, no unit, no commentary.

RLEAARLSLEEELSRVKAAALSER [LRRC45]
4.04
AKLALYPCASLLAFASTCLLSRFS [TMEM175]
2.52

Report protein stability index for ESQLDPSNCLGIRDFAETHNCVDL [KLHL12] 4.26

Report protein stability index for VVLCFSIANPNSLNHVKSMWYPEI [RHOBTB1] 3.6

Report protein stability index for VETAFERLQQELEQQRCLLLARLR [TRIM15] 2.86

Report protein stability index for SGPAASEHSHRSHHSLASSLRSHH [DVL3] 3.91

###

Assay: protein stability index of a GFP-peptide fusion (GPS, HEK-293T) (PSI 1-6); higher = more stable
Conditions: treatment: DMSO; c terminus: a fixed tail appended
# maps each entry to its protein stability index
Format: numeric value only, no unit, no commentary.

KKLHKIQNKAQRQKDLIMKVENLT [TAF7L]
3.23
IPAGARDIQIVERKKSADVLALAD [ADAMTSL2]
4.68
LEEKCQQPASELLQDVRVNQSRCE [TRIM15]
5.58

Report protein stability index for LDLIFHVALPTEAEFQLVRDVVLC [TENT5C] 2.98

Report protein stability index for TLPLQDRELGPEELDELQAAFEEF [CABP4] 5.27

###

Assay: protein stability index of a GFP-peptide fusion (GPS, HEK-293T) (PSI 1-6); higher = more stable
Details: treatment: MLN4924 1 uM, 8 h; c terminus: a fixed tail appended
ENDPOINT_NAME: protein stability index
Format: numeric value only, no unit, no commentary.

Consider the worked cases shown below.
SEMKKCSDYESIEVPDSYTGPRLS [PPEF2]
4.53
GCLKMNPDDRLTCSQLLESSYFDS [CDKL4]
3.54

Report protein stability index for TSQKVARKFWWKNVKMIVLICVIV [VAMP8] 2.15

###

Test: protein stability index of a GFP-peptide fusion (GPS, HEK-293T) (PSI 1-6); higher = more stable
Settings: treatment: DMSO; c terminus: a fixed tail appended
# maps each entry to its protein stability index
Format: numeric value only, no unit, no commentary.

Consider the worked cases shown below.
SPRTRGSWSQPQPLKAPCLNGDTT [RASAL3]
3.92
SRRIYRCRNCINLQNEAQKRESFL [IQUB]
2.17
RKLFEVESVTHHDYRMELAQAGTP [SPAG8]
3.64
SYQKPKEVVVAESELQKELKKVKT [DPCD]
4.95
KYKKAVGLKLKQEKKEAYLKLKQG [WDR88]
2.98

Report protein stability index for EPTETLLSEKEINAREESLVEELS [BCL2L13] 5.46

Report protein stability index for HRQETVDCLKKFNARRKLKGAILT [CAMK2D] 2.69

Report protein stability index for RAALISRRHLQFWKSHLRNVQRPL [RHOBTB2] 2.56

Report protein stability index for WEPFDWGRLLEALCREEPVVQGPD [FANCE] 3

Report protein stability index for AFFASHQCSNRIGSMKIKSSWDID [FBXO34] 2.46

Report protein stability index for AAEVGTGQYATTKGISQTNLITTV [EPB41L3] 3.54

Report protein stability index for WLQKLCCPCCFGRDCLVLNQGYLS [PI4K2A] 2.4

Report protein stability index for GLFFPPQLNGTANDTAGPELPDPL [NFE2L1] 4.29

Report protein stability index for DSSIIRTTQDLFAINRDTAFPGAS [RHOBTB3] 3.91

Report protein stability index for ECGKRFLRSSDLYRHQRLHTGERP [ZNF449] 3.08

Report protein stability index for SSSQKEESPSTLQVLPDSESLPRS [MAGEA10] 5.36

Report protein stability index for DEGASAGQGPKPEADSQEQGHPQT [GAGE1] 5.71

Report protein stability index for RLEAARLSLEEELSRVKAAALSER [LRRC45] 3.71

Report protein stability index for RNSGIIGGKYLGRTKVVKPYSTVD [EFHC1] 2.91

###

Experiment: protein stability index of a GFP-peptide fusion (GPS, HEK-293T) (PSI 1-6); higher = more stable
Settings: treatment: DMSO; c terminus: a fixed tail appended
# maps each entry to its protein stability index
Format: numeric value only, no unit, no commentary.

PCPLGEPKTQACSGSESPSDSGKD [MYCL]
5.41
PMVLKGKIRPDSSRPELLQPLNFV [GLT8D2]
2.83
SSRIEQGEWGGRHPSWPWTRCLRM
2.5
VGEKNCTGPPCDRQWTVSDWGPCS [ADAMTSL2]
3.53
RFNKLGLDHLSLGEEPVPHQQVEE [NEK8]
4.91

Report protein stability index for IDGVATTRYSVAGLSPYSDYEFRV [PTPRD] 2.02

Report protein stability index for ESVVSSAVPAAATRTTSFKGTSPS [KCTD10] 5.09

Report protein stability index for VLGAHRGHPVGLALEAAVHVQKLS [TRIM14] 2.63

###

# maps each entry to its protein stability index
Experiment: protein stability index of a GFP-peptide fusion (GPS, HEK-293T) (PSI 1-6); higher = more stable
Details: treatment: DMSO; c terminus: a fixed tail appended

GGDYGLVTAGCGFGKDFRKGLLKK [PPTC7]
3.22

Report protein stability index for ARMLREYQELMSLKLALDMEIATY [KRT71] 2.19

Report protein stability index for LYAVGGQDGVSCLNIVERYDPKEN [KLHL20] 3.89

###

Assay: protein stability index of a GFP-peptide fusion (GPS, HEK-293T) (PSI 1-6); higher = more stable
Settings: treatment: DMSO; c terminus: a fixed tail appended
ENDPOINT_NAME: protein stability index

Report protein stability index for LDLLSELYQKQPKIGYHLLYYLRA [INTS3] 3.21

Report protein stability index for TGREMHGKNWSKLCKDCQVIDGRN [TPPP] 3.14

Report protein stability index for KGTFKDYVRDRADLNKDKPVIPAA [ETS1] 4.35

Report protein stability index for SSPSNMLPVRPQTNALIGGPMPMS [CLINT1] 3.85

Report protein stability index for VLVAETTMARIRRVYVSGLMKGGA [APMAP] 2.17

Report protein stability index for TTALLHYQLPQMPDVVVRSFMTWL [MED27] 2.59

Report protein stability index for CTDKENALKLFPVQPCSAVHLLLK [FAM189A2] 2.58

Report protein stability index for SIIECDMNVDFDAPLGYKEPERQV [UFD1] 4.27

Report protein stability index for VETAFERLQQELEQQRCLLLARLR [TRIM15] 2.81

Report protein stability index for STFIRRYSRYLNEKAFSYRQMAFD [SNAP91] 2.11
